FYI, the data here is from the supplement of paper PMC10065799.

- Target or system: FGFR3 (UniProt P22607)
- Sequence (P22607 whole entry, looked up): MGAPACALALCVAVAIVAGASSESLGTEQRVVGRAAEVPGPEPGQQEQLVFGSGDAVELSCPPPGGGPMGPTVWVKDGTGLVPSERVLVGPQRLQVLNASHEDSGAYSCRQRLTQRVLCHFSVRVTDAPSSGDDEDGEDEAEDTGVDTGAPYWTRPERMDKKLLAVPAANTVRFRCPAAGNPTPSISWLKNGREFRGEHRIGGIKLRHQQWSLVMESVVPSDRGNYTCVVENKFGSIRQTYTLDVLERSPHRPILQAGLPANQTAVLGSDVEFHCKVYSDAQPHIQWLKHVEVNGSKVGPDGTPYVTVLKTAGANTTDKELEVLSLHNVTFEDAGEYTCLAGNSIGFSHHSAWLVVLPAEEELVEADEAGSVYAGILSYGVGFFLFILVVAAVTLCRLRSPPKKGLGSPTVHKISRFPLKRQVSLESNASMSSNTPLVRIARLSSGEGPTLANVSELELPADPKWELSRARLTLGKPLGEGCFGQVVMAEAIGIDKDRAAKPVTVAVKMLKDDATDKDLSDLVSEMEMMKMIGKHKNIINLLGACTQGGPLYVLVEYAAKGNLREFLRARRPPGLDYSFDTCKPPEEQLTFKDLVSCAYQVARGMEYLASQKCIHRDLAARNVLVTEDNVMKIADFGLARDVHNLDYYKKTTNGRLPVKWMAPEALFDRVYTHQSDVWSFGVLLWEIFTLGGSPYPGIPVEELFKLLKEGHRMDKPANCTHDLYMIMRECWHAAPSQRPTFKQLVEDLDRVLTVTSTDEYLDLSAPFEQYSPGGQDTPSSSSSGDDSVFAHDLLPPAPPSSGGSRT
- Experiment notes: phosphorylation enrichment, bacterial display (enrichment ratio); higher = better substrate or ligand; peptides without Tyr show the background;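 further: 11-residue human phosphosite peptides and single-mutation variants displayed on the E. coli surface, counted by deep sequencing, each peptide's frequency after selection divided by its frequency in the unselected input library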;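 further: frequency after pTyr selection over input frequency; kinase dosed for 20-30% of maximal phosphorylation in three min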
Each entry below carries its reported phosphorylation enrichment.
Form: value (number only, do not type unit).

// solved cases for phosphorylation enrichment follow
[
  {
    "Ordered residues": "NGRQCYSCRGN [PLAUR_Y217_K220R]",
    "Test result": 0.31
  },
  {
    "Ordered residues": "ISHVAYLVLGK [TRRAP_Y892_R893L]",
    "Test result": 0.75
  },
  {
    "Ordered residues": "LDFPEYNGVDR [CASQ1_Y43_D44N]",
    "Test result": 1.61
  },
  {
    "Ordered residues": "MSGDVYSTDYY [NTRK2_Y702_R699G]",
    "Test result": 2.29
  },
  {
    "Ordered residues": "DGSALYTGSAL [COL6A3_Y524]",
    "Test result": 0.474
  }
]

What value of phosphorylation enrichment on FGFR3 (UniProt P22607) does DEDYLCREELA [POR_Y575_Y575C] have?
1.43

Please do the same for SKDQICPMKLK [RANBP17_Y823_Y823C] as well.
0.643

LFNQDYPIHSV [GATM_Y227_YF] , same question.
2

----------
Item-by-item account of phosphorylation enrichment
- System: Fer (mouse)
- Experiment notes: phosphorylation enrichment, bacterial display (enrichment ratio); higher = better substrate or ligand; peptides without Tyr show the background
Number only, no unit.

[
  {
    "Ordered residues": "FQKNIYSEEPR [LMNA_Y211_L215P]",
    "phosphorylation enrichment": 0.454
  },
  {
    "Ordered residues": "MCVKSYTIHFS [F5_Y2153_Y2149C_YF]",
    "phosphorylation enrichment": 0.552
  },
  {
    "Ordered residues": "NRLTDYYELLL [BBS10_Y536_P539L]",
    "phosphorylation enrichment": 1.98
  },
  {
    "Ordered residues": "ELPQTYCVSGP [DYSF_Y1684_G1679E]",
    "phosphorylation enrichment": 0.515
  }
]

Form field: reported phosphorylation enrichment of HGDDDYDDPEL [CLNK_Y69_S65G]
0.717

Request: LVMFIYAIFWM [SCN1A_Y1684_G1688W]
0.531

Note, next up: GTSLIYWILFT [G6PC3_Y214_T216I]
0.55

What do we get for DELDKYSEVLK [TPM1_Y60_A63V] ?
0.624

Next sequence up: FISLIYTNFEV [GSTP1_Y109_A114V_YF]
5.37

Same for FEGRSYSACTT [MMP9_Y241]
0.516

Next up: CTTIHQNYMCN [TP53_Y234_Y234Q]
0.387

----------
Form field: phosphorylation enrichment (one value per entry).
- Target or system: MERTK (UniProt Q12866)
- Sequence (Q12866 whole entry, looked up): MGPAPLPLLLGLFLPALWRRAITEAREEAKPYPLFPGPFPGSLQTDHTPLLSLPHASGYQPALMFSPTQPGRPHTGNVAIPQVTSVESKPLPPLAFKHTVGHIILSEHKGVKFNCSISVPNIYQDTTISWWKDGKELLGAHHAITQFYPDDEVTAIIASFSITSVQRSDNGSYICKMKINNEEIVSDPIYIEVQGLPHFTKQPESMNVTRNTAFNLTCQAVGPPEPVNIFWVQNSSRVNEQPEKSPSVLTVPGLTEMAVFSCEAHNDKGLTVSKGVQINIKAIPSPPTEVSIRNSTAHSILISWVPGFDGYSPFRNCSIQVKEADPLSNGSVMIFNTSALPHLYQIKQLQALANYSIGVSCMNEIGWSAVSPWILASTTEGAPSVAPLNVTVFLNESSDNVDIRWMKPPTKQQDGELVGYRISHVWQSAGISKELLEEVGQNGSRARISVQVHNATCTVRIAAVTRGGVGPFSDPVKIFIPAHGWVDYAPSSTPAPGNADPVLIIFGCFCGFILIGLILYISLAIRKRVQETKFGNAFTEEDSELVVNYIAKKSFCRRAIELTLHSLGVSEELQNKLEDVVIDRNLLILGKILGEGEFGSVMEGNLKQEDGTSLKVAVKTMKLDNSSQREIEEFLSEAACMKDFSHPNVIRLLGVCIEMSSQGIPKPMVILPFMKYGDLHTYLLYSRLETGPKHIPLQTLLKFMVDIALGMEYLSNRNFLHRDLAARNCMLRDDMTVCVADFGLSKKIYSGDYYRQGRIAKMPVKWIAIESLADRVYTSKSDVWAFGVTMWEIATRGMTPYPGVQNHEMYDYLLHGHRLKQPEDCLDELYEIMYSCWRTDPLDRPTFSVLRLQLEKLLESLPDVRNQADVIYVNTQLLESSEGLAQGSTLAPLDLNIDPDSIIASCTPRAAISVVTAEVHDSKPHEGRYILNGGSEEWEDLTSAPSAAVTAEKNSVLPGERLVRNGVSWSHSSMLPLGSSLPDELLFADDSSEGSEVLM
- Experiment notes: phosphorylation enrichment, bacterial display (enrichment ratio); higher = better substrate or ligand; peptides without Tyr show the background
Reply with the value as a number alone.

[
  {
    "Ordered residues": "KDHPDYKFPPR [SOX10_Y171_Q174P_YF]",
    "phosphorylation enrichment": 0.393
  },
  {
    "Ordered residues": "KLQKKYGPIFS [CYP17A1_Y60_YF]",
    "phosphorylation enrichment": 0.39
  },
  {
    "Ordered residues": "VVHSSYDEIEG [SEC24A_Y263]",
    "phosphorylation enrichment": 0.429
  }
]

Which measured phosphorylation enrichment value corresponds to NTDETYCIDNK [TUBB3_Y200_E205K] ?
0.407

Quick one: DFLEKYFKFGS [NNMT_Y24_YF]
0.564

Input TSEASYYKSLN [NGEF_Y288]
0.535

Subsequent entry: ILGRYYERGSI [PAX5_Y73_T75R]
0.408

Thanks! And IEENGYNTYAS [FGF10_Y161] ?
0.422

Likewise for FADIAYNFRRG [PAH_Y166_H170R_YF] ?
0.396

// same read-out, input: LRLFSYSTTIR [CYP7B1_Y365_S363F]
0.35

Please give the result for HEKKAYSFCGT [RPS6KA3_Y226] too.
0.725

Item: RWGQKYMTAVV [CYBA_Y72]
0.452

Likewise for HRGYLYLAIEY [TEK_Y899] ?
0.486

----------
Recorded phosphorylation enrichment for the following sequences
- Target or system: Jak2 (UniProt O60674)
- Sequence (O60674 whole entry, looked up): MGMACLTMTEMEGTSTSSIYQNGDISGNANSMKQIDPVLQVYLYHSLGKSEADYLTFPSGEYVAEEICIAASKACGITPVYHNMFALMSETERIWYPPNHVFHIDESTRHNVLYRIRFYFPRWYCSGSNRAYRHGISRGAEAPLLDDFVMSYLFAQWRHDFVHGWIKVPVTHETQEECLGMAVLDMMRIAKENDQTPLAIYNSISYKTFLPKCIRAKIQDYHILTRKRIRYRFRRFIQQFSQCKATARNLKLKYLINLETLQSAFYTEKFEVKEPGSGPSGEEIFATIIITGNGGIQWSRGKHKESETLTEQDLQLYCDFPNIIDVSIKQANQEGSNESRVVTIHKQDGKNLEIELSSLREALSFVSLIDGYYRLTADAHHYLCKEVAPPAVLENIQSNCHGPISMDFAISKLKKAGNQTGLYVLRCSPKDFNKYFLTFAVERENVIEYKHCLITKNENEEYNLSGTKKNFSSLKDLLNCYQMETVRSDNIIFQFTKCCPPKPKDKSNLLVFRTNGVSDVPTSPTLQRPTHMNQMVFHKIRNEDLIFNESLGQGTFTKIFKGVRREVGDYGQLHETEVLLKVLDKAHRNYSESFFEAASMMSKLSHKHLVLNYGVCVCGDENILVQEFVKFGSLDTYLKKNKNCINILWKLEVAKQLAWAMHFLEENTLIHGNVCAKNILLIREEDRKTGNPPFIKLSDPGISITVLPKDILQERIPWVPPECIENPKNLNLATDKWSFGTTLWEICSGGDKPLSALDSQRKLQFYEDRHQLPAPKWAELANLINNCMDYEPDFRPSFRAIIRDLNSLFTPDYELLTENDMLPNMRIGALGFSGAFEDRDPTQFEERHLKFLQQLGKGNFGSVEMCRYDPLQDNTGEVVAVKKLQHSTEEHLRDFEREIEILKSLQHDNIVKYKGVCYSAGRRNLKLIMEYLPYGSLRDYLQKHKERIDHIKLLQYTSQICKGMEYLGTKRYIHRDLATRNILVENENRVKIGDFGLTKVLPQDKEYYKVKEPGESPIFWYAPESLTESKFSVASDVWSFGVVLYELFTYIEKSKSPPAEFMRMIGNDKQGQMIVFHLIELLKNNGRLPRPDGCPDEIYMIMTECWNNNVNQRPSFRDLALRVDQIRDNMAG
- Experiment notes: phosphorylation enrichment, bacterial display (enrichment ratio); higher = better substrate or ligand; peptides without Tyr show the background
No unit in the answer, please; the number alone is enough.

[
  {
    "Ordered residues": "FIPFRYPKEFQ [IDS_Y234_H229Y_YF]",
    "Target or system": "Jak2 (UniProt O60674)",
    "phosphorylation enrichment": 0.548
  },
  {
    "Ordered residues": "IDAICYYRMEN [NPHS2_Y194]",
    "Target or system": "Jak2 (UniProt O60674)",
    "phosphorylation enrichment": 3.15
  },
  {
    "Ordered residues": "PLRANYLIARV [HLCS_Y635_D634N]",
    "Target or system": "Jak2 (UniProt O60674)",
    "phosphorylation enrichment": 1.27
  },
  {
    "Ordered residues": "IEDPYYGNDSD [ACP1_Y133]",
    "Target or system": "Jak2 (UniProt O60674)",
    "phosphorylation enrichment": 1.35
  }
]

State the recorded phosphorylation enrichment for this entry: GREEFYSTHPH [LRRK2_Y1402]
0.483

Also TDRNLYSKNLV [CFAP58_Y501_S496T] , if possible.
0.758

# iterate: KRISCYEARFQ [PFKFB3_Y194_S197R_YF]
0.647

Record: ERKQTYGSCRK [LACTB_Y473]
0.392

Moving on to TFGVLYKARNK [CDK2_Y19_V18L_YF]
0.796

Again, but for CRAVKYLQMVR [AVPR2_Y117_G122R]
1.2

Same for SVVVPYQPPEV [TP53_Y220_E221Q]
0.784

Quick one: TFGNLYGSRKQ [YIPF7_Y59_A54T_YF]
0.507

----------
- Tested on: c-Abl (mouse)
- Experiment notes: phosphorylation enrichment, bacterial display (enrichment ratio); higher = better substrate or ligand; peptides without Tyr show the background
Definition: the class of an entry is the range in interval 1: < 0.6; interval 2: ≥ 0.6 and < 0.7; interval 3: ≥ 0.7 that contains its phosphorylation enrichment.

Answered examples (5):
[
  {
    "Ordered residues": "PEADKYHLTYA [FGG_Y300_R301H]",
    "Label": "interval 3"
  },
  {
    "Ordered residues": "RLDPVYFVAPA [LAMC2_Y250]",
    "Label": "interval 3"
  },
  {
    "Ordered residues": "IINENYDFLKV [NUP98_Y1664_G1669V_YF]",
    "Label": "interval 2"
  },
  {
    "Ordered residues": "NGRQCYSCRGN [PLAUR_Y217_K220R]",
    "Label": "interval 1"
  },
  {
    "Ordered residues": "GRRGQYVMLSE [TTC7A_Y396]",
    "Label": "interval 1"
  }
]

# bin lookup: classify IQRSLYDRPAS [PDGFRA_Y762] by its phosphorylation enrichment
interval 1

Repeat for the following sequence: RENGPYYTSYP [GDAP2_Y487]
interval 3

ELPQTYCVSGP [DYSF_Y1684_G1679E] , same question.
interval 2

What do you have for CATIHYNYMCN [TP53_Y234_T230A] ?
interval 1

// next record EDKSIYRRGAR [PRKCI_Y125]
interval 2

Field entry: VPLATYMQIYK [RPL21_Y30_R32Q]
interval 1

Request: RLPINYTTRRI [LAMA2_Y2894_G2889R]
interval 2

Then what about the sequence RWGQKYMTAVV [CYBA_Y72] ?
interval 1

For YGAHKYHPLPV [OAT_Y55_N54K] then?
interval 1

Please give the result for HAVEDYQAIVD [CCT7_Y263_T259A] too.
interval 3

----------
- Target or system: FGFR1 (UniProt P11362)
- Sequence (P11362 whole entry, looked up): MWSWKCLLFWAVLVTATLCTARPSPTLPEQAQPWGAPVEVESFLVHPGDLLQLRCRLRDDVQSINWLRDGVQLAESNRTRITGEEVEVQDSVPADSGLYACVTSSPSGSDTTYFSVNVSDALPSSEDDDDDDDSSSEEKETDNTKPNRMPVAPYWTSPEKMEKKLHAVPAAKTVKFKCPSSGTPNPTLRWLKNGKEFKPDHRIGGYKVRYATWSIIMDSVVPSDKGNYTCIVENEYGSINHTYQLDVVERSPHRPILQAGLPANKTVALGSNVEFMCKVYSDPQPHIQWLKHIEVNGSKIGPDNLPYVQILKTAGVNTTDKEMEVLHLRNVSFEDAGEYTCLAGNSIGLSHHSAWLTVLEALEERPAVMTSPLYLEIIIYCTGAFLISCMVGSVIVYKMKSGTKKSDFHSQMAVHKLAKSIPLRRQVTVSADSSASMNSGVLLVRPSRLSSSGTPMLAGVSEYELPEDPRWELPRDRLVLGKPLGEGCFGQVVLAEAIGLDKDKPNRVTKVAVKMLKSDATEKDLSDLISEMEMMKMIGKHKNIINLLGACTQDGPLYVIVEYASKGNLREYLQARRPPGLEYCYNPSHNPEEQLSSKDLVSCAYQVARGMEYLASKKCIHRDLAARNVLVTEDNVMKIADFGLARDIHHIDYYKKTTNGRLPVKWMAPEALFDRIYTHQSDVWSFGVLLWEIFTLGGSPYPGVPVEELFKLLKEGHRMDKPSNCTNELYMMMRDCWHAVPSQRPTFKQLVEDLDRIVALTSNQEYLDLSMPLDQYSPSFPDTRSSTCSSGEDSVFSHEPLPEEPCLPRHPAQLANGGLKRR
- Experiment notes: phosphorylation enrichment, bacterial display (enrichment ratio); higher = better substrate or ligand; peptides without Tyr show the background
Kindly note that classification relies on phosphorylation enrichment with these boundaries: low bracket = under 0.5, middle bracket = from 0.5 up to 0.7, high bracket = 0.7 and over

[
  {
    "Ordered residues": "LEQQKYTVTVD [IKBKB_Y199]",
    "Label": "middle bracket"
  },
  {
    "Ordered residues": "KHCEDYVFSYN [DSC1_Y846_C848F]",
    "Label": "high bracket"
  },
  {
    "Ordered residues": "KDHPDYKFPPR [SOX10_Y171_Q174P_YF]",
    "Label": "middle bracket"
  },
  {
    "Ordered residues": "HEPKGYNANFC [TGFB2_Y341]",
    "Label": "middle bracket"
  },
  {
    "Ordered residues": "CRAVKYLQMVR [AVPR2_Y117_G122R]",
    "Label": "low bracket"
  },
  {
    "Ordered residues": "LADKPYTFEDY [FXN_Y118]",
    "Label": "high bracket"
  },
  {
    "Ordered residues": "VGGRIYTDDGL [PKLR_Y218_I219T]",
    "Label": "low bracket"
  },
  {
    "Ordered residues": "RPGGRYPVARR [SHANK3_Y1569_S1566G]",
    "Label": "middle bracket"
  }
]

Tag the class for QMVRMYASSYM [AVPR2_Y124_G122R]
middle bracket

And for NVPILYTASQA [CTNNA1_Y222] ?
low bracket

Next sequence up: HNVPIYEGFAL [ACTA1_Y168_YF]
middle bracket

Moving on to ICANKYMVESC [RPL10_Y75_K78E]
middle bracket

Also need LIQRNYKLTAQ [ALPK2_Y1975_A1978T] , thanks.
low bracket

What about this sequence? ENELTYFCFKK [CD59_Y86_C89Y_YF]
high bracket
